# ASSAY PROCEDURE: Mouse pharmacokinetics (oral)
# Assay type: in vivo
# EXPERIMENTAL SETUP: plasma, 50 mg/kg, ICR mouse, 5 mg/mL solution at 10 mL/kg, read-out: Mouse pharmacokinetics AUCinf
Quick rule: AUC(0-inf) of at least 30000 ng·h/mL means satisfied, below that means not satisfied.

| SMI | LABEL VALUE |
| --- | --- |
| CNC1CN(c2nc3ncc(I)cc3n3cnnc23)C1 | not satisfied |
| Clc1cnc2nc(N3CCNCC3)c3nncn3c2c1 | not satisfied |
| CNC1CN(c2nc3ncc(Cl)cc3n3nnnc23)C1 | satisfied |
| CNC1CN(c2nc3ncc(Cl)cc3n3cnnc23)C1 | not satisfied |
| CNC1CN(c2nc3ncc(Br)cc3n3nnnc23)C1 | satisfied |
| Brc1cnc2nc(N3CCNCC3)c3nncn3c2c1 | not satisfied |
| Cc1nc2c3cc(Cl)cnc3nc(N3CCNCC3)n2n1 | satisfied |
| CN1CCN(c2nc3ncc(Cl)cc3n3cnnc23)CC1 | satisfied |
| Cc1nc2c3cc(Cl)cnc3nc(N3CCN(C)CC3)n2n1 | not satisfied |
| CNC1CN(c2nc3ncc(C#N)cc3n3cnnc23)C1 | not satisfied |
| CNC1CN(c2nc3ncc(Br)cc3n3cnnc23)C1 | satisfied |

----------
# TESTED TARGET: human histamine 4 receptor (hH4R) (Homo sapiens (Human), UniProt Q9H3N8)
# Sequence (Q9H3N8 whole entry): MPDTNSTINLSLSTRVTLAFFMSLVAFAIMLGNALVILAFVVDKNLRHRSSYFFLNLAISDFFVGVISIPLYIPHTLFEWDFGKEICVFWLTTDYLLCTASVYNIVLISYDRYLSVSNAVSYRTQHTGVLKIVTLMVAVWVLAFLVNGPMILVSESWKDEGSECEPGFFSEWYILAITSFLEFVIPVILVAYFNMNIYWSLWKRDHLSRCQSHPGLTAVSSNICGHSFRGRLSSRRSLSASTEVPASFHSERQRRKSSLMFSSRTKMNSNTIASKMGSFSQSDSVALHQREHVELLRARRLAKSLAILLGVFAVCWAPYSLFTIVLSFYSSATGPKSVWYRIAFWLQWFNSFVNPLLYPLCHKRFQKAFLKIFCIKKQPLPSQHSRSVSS
# ASSAY PROCEDURE: Binding affinity of human histamine 4 receptor (hH4R), [3H] labeled histamine displacement
# EXPERIMENTAL SETUP: hH4R-overexpressed cell membrane, [3H] histamine; 2,2,2-trifluoroacetate
RECORDED METRIC: IC50 (nM)

| MOLECULE | OUTPUT UNIT | RECORDED NUMBER |
| --- | --- | --- |
| CNC1CN(c2nc3ncc(Br)cc3n3cnnc23)C1.O=C(O)C(F)(F)F [Compound 104, 2,2,2-trifluoroacetate] | nM | 30 |

----------
# TESTED TARGET: human histamine 4 receptor (hH4R) (Homo sapiens (Human), UniProt Q9H3N8)
# ASSAY PROCEDURE: Binding affinity of human histamine 4 receptor (hH4R), [3H] labeled histamine displacement
# EXPERIMENTAL SETUP: hH4R-overexpressed cell membrane, [3H] histamine
# Protocol: 20 μL of the prepared compound solution was transferred to each well of a 96-well plate, and then 20 μL of 100 μM histamine diluted with analysis buffer solution and 1% DMSO were transferred to each well to calculate non-specific binding and total binding degree. […] 100 μL of betascint cocktail solution was added to each well, and after 1 hour CPM (count per minute) value of [^3H] labeled histamine was measured by using Wallac beta-counter TriLux.
pIC50: −log10 of the molar value.
// reported pIC50 for each item listed
RECORDED METRIC: pIC50

| SMI | TESTED TARGET | RECORDED NUMBER |
| --- | --- | --- |
| Cc1nc2c3cc(Cl)cnc3nc(N3CCN(C)CC3)n2n1 | human histamine 4 receptor (hH4R) (Homo sapiens (Human), UniProt Q9H3N8) | 7.80 |
| CN1CCN(c2nc3ncc(Cl)cc3n3cnnc23)CC1 | human histamine 4 receptor (hH4R) (Homo sapiens (Human), UniProt Q9H3N8) | 7.40 |
| CNC1CN(c2nc3nc(C#N)c(Cl)cc3n3cnnc23)C1 | human histamine 4 receptor (hH4R) (Homo sapiens (Human), UniProt Q9H3N8) | 6.31 |
| CNC1CN(c2nc3ncc(Br)cc3c3ccnn23)C1 | human histamine 4 receptor (hH4R) (Homo sapiens (Human), UniProt Q9H3N8) | 6.80 |
| CN1CCN(c2nc3ncc(C#N)cc3n3cnnc23)CC1 | human histamine 4 receptor (hH4R) (Homo sapiens (Human), UniProt Q9H3N8) | 6.62 |
